Attribution: patent US20140213538A1

Below, each entry is listed alongside its reported IC50.
- target-or-test-system: LPA1 (Homo sapiens)
- experiment-description: Ca Flux LPA1 assay

compound: Cc1noc(-c2ccc(-c3ccc(Oc4ncccc4C(=O)O)cc3)cc2)c1NC(=O)O[C@H](C)c1ccccc1 [IT199]
IC50: < 50 nM
//
compound: C[C@@H](OC(=O)Nc1c(-c2ccc(-c3ccc(C4(C(=O)OC5OC(C(=O)O)C(O)C(O)C5O)CC4)cc3)cc2)cnn1C)c1ccccc1 (stereo partly shown) [IT105]
IC50: 50 to 500 nM

Query: IC50; subject: Cc1noc(-c2ccc(-c3ccc(OC4(C(=O)O)CC4)cc3)cc2)c1NC(=O)O[C@H](C)c1ccccc1 [IT197]
Reply: < 50 nM

Query: IC50; subject: C[C@@H](OC(=O)Nc1c(-c2cc3sc(-c4cc(F)c(C5(C(=O)O)CC5)c(F)c4)cc3s2)cnn1C)c1ccccc1 [IT261]
Reply: > 500 nM

###

- target-or-test-system: LPA/S1P GPCR of interest (Homo sapiens)
- experiment-description: Beta-Arrestin based assay (PathHunter)
pEC50: −log10 of the molar value.
endpoint-name: pEC50

compound: Cc1cc(-c2cc3sc(-c4cnn(C)c4NC(=O)O[C@H](C)c4ccccc4)cc3s2)c(F)cc1CC(=O)O
endpoint-name: pEC50
readout-value: < 6.30
//
compound: Cc1nsc(-c2cc3sc(-c4ccc(C5(C(=O)O)CC5)c(Cl)c4)cc3s2)c1NC(=O)O[C@H](C)c1ccccc1
endpoint-name: pEC50
readout-value: 6.30 to 7.30
//
compound: C[C@@H](NC(=O)Nc1c(C#Cc2cc3sc(C4(C(=O)O)CC4)cc3s2)cnn1C)c1ccccc1
endpoint-name: pEC50
readout-value: > 7.30
//
compound: C[C@@H](OC(=O)Nc1c(-c2cc3sc(-c4ccc(C5(C(=O)O)CC5)c(Cl)c4)cc3s2)nnn1C)c1ccccc1
endpoint-name: pEC50
readout-value: > 7.30
//
compound: C[C@@H](OC(=O)Nc1c(-c2cc3sc(-c4ccc(C5(C(=O)O)CC5)cc4)cc3s2)cnn1C)c1ccccc1
endpoint-name: pEC50
readout-value: > 7.30
//
compound: CNS(=O)(=O)c1ccc(-c2ccc(-c3onc(C)c3NC(=O)O[C@H](C)c3ccccc3)cc2)cc1
endpoint-name: pEC50
readout-value: < 6.30

Let us examine a further case.
Query: Lab request: please report pEC50 under test system LPA/S1P GPCR of interest (Homo sapiens) for C[C@@H](OC(=O)Nc1c(-c2ccc(-c3ccc(C(C(=O)O)C4CCC4)cc3)cc2)cnn1C)c1ccccc1 (stereo partly shown)
Reply: > 7.30

###

Below, each entry is listed alongside its reported EC50.
- target-or-test-system: LPA/S1P GPCR of interest (Homo sapiens)
- experiment-description: Beta-Arrestin based assay (PathHunter)

molecule: C[C@@H](OC(=O)Nc1c(-c2cc3sc(-c4ccc(CC(=O)O)c5ccccc45)cc3s2)cnn1C)c1ccccc1
EC50: > 500 nM

Let us examine a further case.
Query: Lab request: please report EC50 under test system LPA/S1P GPCR of interest (Homo sapiens) for "Cc1nsc(-c2cc3sc(-c4ccc(C5(C(=O)O)CC5)c(F)c4F)cc3s2)c1NC(=O)O[C@H](C)c1ccccc1"
Reply: < 50 nM

###

- target-or-test-system: UniProt Q92633
- experiment-description: LPA1 Migration Assay (Oris)
- reported-conditions: read-out: Cell Migration EC50
- Excerpt: LPA1 Migration Assay Migration of primary fibroblasts (including lung, dermal), HFL-1, 3T3 and CHO cells expressing LPA1R were monitored using the Oris™ assay (Platypus Technologies, Madison, Wis.). These cells were dye (Cell Tracker Green™) loaded and serum starved for 12-24 hrs. In response to chemoattractants such as LPA and serum, the cells migrated inward in to the exclusion (detection) zone. After fixing, fluorescent cells in the detection zone were counted using a high content reader. […]
endpoint-name: EC50

Answered cases to consult:
compound: C[C@@H](OC(=O)Nc1c(-c2ccc3cc(C#CC4(C(=O)O)CC4)ccc3c2)nnn1C)c1ccccc1 [IT146]
EC50: 50 to 500 nM
//
compound: Cc1nsc(-c2cc3sc(-c4ccc(CC(=O)O)cc4N)cc3s2)c1NC(=O)O[C@H](C)c1ccccc1 [IT182]
EC50: > 500 nM
//
compound: CCC(C)OC(=O)Nc1c(C)noc1-c1ccc(-c2ccc(Oc3ccccc3C(=O)O)cc2)cc1 (single isomer, unassigned) [IT493]
EC50: > 500 nM

Query: EC50; subject: C[C@@H](OC(=O)Nc1c(-c2cc3sc(-c4ccc(CC(=O)O)cc4Cl)cc3s2)cnn1C)c1ccccc1 [IT140]
Reply: > 500 nM

###

Below, each entry is listed alongside its reported EC50.
- target-or-test-system: LPA/S1P GPCR of interest (Homo sapiens, UniProt Q92633)
- Sequence (Q92633 whole entry): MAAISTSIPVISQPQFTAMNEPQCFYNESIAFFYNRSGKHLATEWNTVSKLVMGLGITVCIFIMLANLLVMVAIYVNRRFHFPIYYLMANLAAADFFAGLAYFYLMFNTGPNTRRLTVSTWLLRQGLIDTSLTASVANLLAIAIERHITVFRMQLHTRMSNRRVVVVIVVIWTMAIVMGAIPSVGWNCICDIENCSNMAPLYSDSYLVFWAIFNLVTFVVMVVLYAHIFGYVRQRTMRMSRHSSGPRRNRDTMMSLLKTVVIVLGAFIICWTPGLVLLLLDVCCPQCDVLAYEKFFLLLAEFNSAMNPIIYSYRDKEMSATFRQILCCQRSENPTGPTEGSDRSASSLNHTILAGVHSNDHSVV
- experiment-description: Beta-Arrestin based assay (PathHunter)

Answered cases to consult:
smiles: C[C@@H](OC(=O)Nc1c(-c2ccc(-c3ccc(C4(C(=O)O)CC4)s3)cc2)nnn1C)c1ccccc1
EC50: < 0.05 µM
--
smiles: Cc1nsc(-c2ccc(-c3cc(F)c(Oc4ccccc4C(=O)O)c(F)c3)cc2)c1NC(=O)O[C@H](C)c1ccccc1
EC50: < 0.05 µM
--
smiles: C[C@@H](OC(=O)Nc1c(-c2cc3sc(-c4ccc5[nH]cc(CC(=O)O)c5c4)cc3s2)cnn1C)c1ccccc1
EC50: 0.05 to 0.5 µM

Query: EC50; subject: "Cc1nsc(-c2cc3sc(-c4ccc(-c5nnc(CC(=O)O)s5)cc4)cc3s2)c1NC(=O)O[C@H](C)c1ccccc1"
Reply: > 0.5 µM

Query: EC50; subject: "C[C@@H](OC(=O)Nc1c(-c2cc3sc(-c4ccc(CC(=O)O)cc4OC(F)(F)F)cc3s2)cnn1C)c1ccccc1"
Reply: > 0.5 µM

Query: EC50; subject: "Cc1noc(-c2ccc(-c3ccc(C4(C(=O)O)CCC4)cc3)cc2)c1NC(=O)O[C@H](C)c1ccccc1"
Reply: < 0.05 µM

Query: EC50; subject: "Cc1noc(-c2ccc(-c3cc(F)c(Oc4ccccc4C(=O)O)c(F)c3)cc2)c1NC(=O)O[C@H](C)c1ccccc1Cl"
Reply: < 0.05 µM

Query: EC50; subject: "COC(=O)c1ccccc1Oc1ccc(-c2ccc(-c3nnn(C)c3NC(=O)O[C@H](C)c3ccccc3)cc2)cc1"
Reply: 0.05 to 0.5 µM

Query: EC50; subject: "Cc1cc(C2(C(=O)O)CC2)ccc1-c1cc2sc(-c3cnn(C)c3NC(=O)O[C@H](C)c3ccccc3)cc2s1"
Reply: < 0.05 µM

Query: EC50; subject: "Cc1cc(-c2cc3sc(-c4snc(C)c4NC(=O)O[C@H](C)c4ccccc4)cc3s2)c(F)cc1CC(=O)O"
Reply: > 0.5 µM

Query: EC50; subject: "COc1cc(CC(=O)O)c(F)cc1-c1cc2sc(-c3snc(C)c3NC(=O)O[C@H](C)c3ccccc3)cc2s1"
Reply: > 0.5 µM

Query: EC50; subject: "C[C@@H](OC(=O)Nc1sncc1C#Cc1cc2sc(C3(C(=O)O)CC3)cc2s1)c1ccccc1"
Reply: > 0.5 µM

Query: EC50; subject: "C[C@@H](OC(=O)Nc1c(-c2cc3sc(-c4ccc(C5(C(=O)O)CC5)c(F)c4F)cc3s2)cnn1C)c1ccccc1"
Reply: < 0.05 µM

Query: EC50; subject: "COc1cc(-c2cc3sc(-c4snc(C)c4NC(=O)O[C@H](C)c4ccccc4)cc3s2)cnc1C1(C(=O)O)CC1"
Reply: 0.05 to 0.5 µM

Query: EC50; subject: "Cc1nsc(-c2cc3sc(-c4ccc(C5(C(=O)O)CC5)c5ccccc45)cc3s2)c1NC(=O)O[C@H](C)c1ccccc1"
Reply: > 0.5 µM

###

Below, each entry is listed alongside its reported IC50.
- target-or-test-system: LPA1 (Homo sapiens)
- experiment-description: Ca Flux LPA1 assay

Answered cases to consult:
molecule: Cc1noc(-c2ccc(-c3ccc(Oc4ccncc4C(=O)O)cc3)cc2)c1NC(=O)O[C@H](C)c1ccccc1 [IT227]
IC50: < 50 nM
--
molecule: C[C@@H](OC(=O)Nc1ccncc1C#Cc1cc2sc(C3(C(=O)O)CC3)cc2s1)c1ccccc1 [IT106]
IC50: < 50 nM

Query: IC50; subject: Cc1onc(-c2cc(F)c(-c3cc4sc(C5(C(=O)O)CC5)cc4s3)cc2F)c1NC(=O)O[C@H](C)c1ccccc1 [IT255]
Reply: 50 to 500 nM

Query: IC50; subject: C[C@@H](OC(=O)Nc1c(-c2ccc(-c3ccc(Oc4ccccc4C(=O)O)cc3)cc2)cnn1C)c1ccccc1 [IT198]
Reply: < 50 nM

Query: IC50; subject: Cc1nsc(-c2ccc(C3CCC(C4(C(=O)O)CC4)CC3)cc2)c1NC(=O)O[C@H](C)c1ccccc1 (stereo partly shown) [IT091]
Reply: 50 to 500 nM

Query: IC50; subject: C[C@@H](OC(=O)Nc1c(C#Cc2cc3sc(C4(c5nn[nH]n5)CC4)cc3s2)cnn1C)c1ccccc1 [IT104]
Reply: < 50 nM

Query: IC50; subject: Cc1noc(-c2ccc(-c3ccc(Oc4ccncc4C(=O)O)c(F)c3)cc2)c1NC(=O)O[C@H](C)c1ccccc1 [IT423]
Reply: < 50 nM
